These entries and their values trace back to PubChem BioAssay AID1159580.

METHOD: chemical genetic growth profiling, strain panel (AID 1159580);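 note: tested at 20 µM; growth read once vehicle control cultures reached saturation at 30 °C; 1 = growth at the plate median or of vehicle wells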
RUN_PARAMETERS: S. cerevisiae deletion strains, growth OD, locus YDL214C, strain PRR2
Screen size: about 5,500 compounds; about 2,000 (36%) were called active. Another 18% or so got no clear call; they are omitted. Cut-off read from the data, not from the text of the source: active = normalized growth mostly below about 0.91 (no sharp cut-off); inconclusive = no clear call, values can overlap the other calls; inactive = mostly above about 0.92. Some of the results follow.
Possible outcomes: active, inactive

[
  {
    "MOLECULE": "Clc1cc(Cl)cc(-c2nc(SCc3ccc(Cl)cc3Cl)n[nH]2)c1",
    "CATEGORY_LABEL": "inactive"
  },
  {
    "MOLECULE": "CSc1n[nH]c(-c2cc(C(F)(F)F)cc(C(F)(F)F)c2)n1",
    "CATEGORY_LABEL": "inactive"
  },
  {
    "MOLECULE": "CCOC(=O)c1cc(CC)sc1NC(=O)c1ccc([N+](=O)[O-])o1",
    "CATEGORY_LABEL": "active"
  },
  {
    "MOLECULE": "S=C(Nc1ccc(Cl)cc1)SCc1c(Cl)cccc1Cl",
    "CATEGORY_LABEL": "inactive"
  },
  {
    "MOLECULE": "Brc1ccc2[nH]c3c(c2c1)CCC3",
    "CATEGORY_LABEL": "active"
  },
  {
    "MOLECULE": "O=C(Nc1ccc(Cl)cc1)SCc1c(Cl)cccc1Cl",
    "CATEGORY_LABEL": "inactive"
  },
  {
    "MOLECULE": "CC(C)Cc1ccc(C(C)C(=O)Nc2nn(C)c3ccccc23)cc1 (centres undefined)",
    "CATEGORY_LABEL": "inactive"
  },
  {
    "MOLECULE": "Cc1oc(C(C)(C)C)cc1-c1cc(N)n(-c2ccc(I)cc2)n1",
    "CATEGORY_LABEL": "inactive"
  },
  {
    "MOLECULE": "Fc1ccc(NC(=S)N2CCCN(Cc3ccc(Cl)cc3Cl)CC2)cc1",
    "CATEGORY_LABEL": "inactive"
  },
  {
    "MOLECULE": "Clc1ccc2c(c1)c1ccccc1n2CN1CCOCC1",
    "CATEGORY_LABEL": "inactive"
  },
  {
    "MOLECULE": "O=C(NCCNc1ncc(C(F)(F)F)cc1Cl)C(F)(F)Sc1ccccc1",
    "CATEGORY_LABEL": "inactive"
  },
  {
    "MOLECULE": "O=S(=O)(NC(=S)Nc1ccc(Cl)c(Cl)c1)c1ccccc1",
    "CATEGORY_LABEL": "inactive"
  },
  {
    "MOLECULE": "O=C(CSCc1csc2ccccc12)Nc1ccc(F)c(Cl)c1",
    "CATEGORY_LABEL": "inactive"
  },
  {
    "MOLECULE": "O=C(N/N=C\\c1cc(Br)ccc1O)c1ccccc1Oc1ccccc1",
    "CATEGORY_LABEL": "inactive"
  }
]

----------
METHOD: chemical genetic growth profiling, strain panel (AID 1159580);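 note: tested at 20 µM; growth read once vehicle control cultures reached saturation at 30 °C; 1 = growth at the plate median or of vehicle wells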
RUN_PARAMETERS: S. cerevisiae deletion strains, growth OD, locus YNL067W, strain RPL9B, stronger effect = lower value
Screen size: about 5,500 compounds; about 2,000 (36%) were called active. Inconclusive results (about 18%) are left out. This is one part of the list.
compounds and their reported normalized growth
EXPERIMENTAL_READOUT: normalized growth

[
  {
    "COMPOUND": "C#C[C@]1(O)CCC2C3CCC4=CC(=O)CC[C@@H]4C3CC[C@@]21CC (stereo partly drawn)",
    "OBSERVED_RESULT": 1.01
  },
  {
    "COMPOUND": "CCCCCCCCCCCC[C@H](C(=O)O)[C@@H](C)C(=O)O",
    "OBSERVED_RESULT": 1.01
  },
  {
    "COMPOUND": "COC1=C[C@@H]2[C@@H]3Cc4ccc(OC)c(O)c4[C@]2(CCN3C)CC1=O",
    "OBSERVED_RESULT": 0.988
  },
  {
    "COMPOUND": "C[C@@H]1OC(O[C@H]2[C@H](O)[C@@H](O)[C@H](OC[C@H]3O[C@@H](OC(=O)[C@]45CCC(C)(C)CC4C4=CCC6[C@@]7(C)CC[C@H](OC8OC[C@H](O)[C@H](O)[C@H]8OC8O[C@@H](C)[C@H](O)[C@@H](O)[C@H]8O)[C@@](C)(CO)C7CC[C@@]6(C)[C@]4(C)CC5)[C@H](O)[C@@H](O)[C@@H]3O)O[C@@H]2CO)[C@H](O)[C@H](O)[C@H]1O (stereo partly drawn)",
    "OBSERVED_RESULT": 1.01
  },
  {
    "COMPOUND": "CC(=O)O[C@@H]1CC[C@@]2(C)C(CC[C@]3(C)C2CC=C2C4CC(C)(C)CC[C@]4(C(=O)O)CC[C@]23C)C1(C)C (stereo partly drawn)",
    "OBSERVED_RESULT": 0.973
  },
  {
    "COMPOUND": "Cc1cc(O)ccc1Cl",
    "OBSERVED_RESULT": 1.02
  },
  {
    "COMPOUND": "NC(N)=N/N=C/c1c(Cl)cccc1Cl",
    "OBSERVED_RESULT": 1.01
  },
  {
    "COMPOUND": "C/C=C1\\[C@H]2C=C(C)C[C@]1(N)c1ccc(=O)[nH]c1C2",
    "OBSERVED_RESULT": 1
  }
]

----------
METHOD: chemical genetic growth profiling, strain panel (AID 1159580);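 note: tested at 20 µM; growth read once vehicle control cultures reached saturation at 30 °C; 1 = growth at the plate median or of vehicle wells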
RUN_PARAMETERS: S. cerevisiae deletion strains, growth OD, locus YBR229C, strain ROT2
In all, about 5,500 compounds went through this assay and about 2,000 (36%) were called active. About 18% were inconclusive and are not listed. No stated cut-off is given here; in the data, active means normalized growth mostly below about 0.91 (no sharp cut-off); inconclusive means no clear call, values can overlap the other calls; inactive means mostly above about 0.92. The list shows a part of the results.
Possible outcomes: active, inactive

[
  {
    "COMPOUND": "CC(C)(C)c1nccc(-c2nn(-c3ccc(F)cc3)ccc2=O)n1",
    "CATEGORY_LABEL": "inactive"
  },
  {
    "COMPOUND": "CSC(=CC(=O)c1ccc(Cl)cc1)SC",
    "CATEGORY_LABEL": "active"
  },
  {
    "COMPOUND": "CC1C(=O)OC2C1CCC1(C)C=CC(=O)C3(C)OC213 (centres undefined)",
    "CATEGORY_LABEL": "inactive"
  },
  {
    "COMPOUND": "CC(C)(C)OC(=O)C(C)(C)S(=O)(=O)c1ccc(Cl)cc1",
    "CATEGORY_LABEL": "inactive"
  },
  {
    "COMPOUND": "CCCc1nc(-c2ccccn2)[nH]c(=O)c1CC1CC1",
    "CATEGORY_LABEL": "active"
  },
  {
    "COMPOUND": "CCCCCCCCCCCC[C@H](C(=O)O)[C@@H](C)C(=O)O",
    "CATEGORY_LABEL": "inactive"
  },
  {
    "COMPOUND": "CCC(C)C(=O)O[C@H]1[C@H](O)C2C(CN3CC(C)CCC3[C@@]2(C)O)C2C[C@]34O[C@]5(O)C(OC(=O)C(C)(O)CC)CC[C@@]3(C)C5C(OC(C)=O)[C@@H](OC(C)=O)C4[C@@]21O (some centres undefined)",
    "CATEGORY_LABEL": "inactive"
  },
  {
    "COMPOUND": "Cc1noc(C)c1NC(N)=O",
    "CATEGORY_LABEL": "inactive"
  },
  {
    "COMPOUND": "COc1cccc(OC)c1OCCNCC1COc2ccccc2O1 (centres undefined)",
    "CATEGORY_LABEL": "inactive"
  },
  {
    "COMPOUND": "NNC(=O)c1ccncc1",
    "CATEGORY_LABEL": "inactive"
  },
  {
    "COMPOUND": "CC(C)=CCCC1(C)C=Cc2c(O)c3c(c(CC=C(C)C)c2O1)OC12C(=CC4CC1C(C)(C)OC2(C/C=C(/C)C(=O)O)C4=O)C3=O (centres undefined)",
    "CATEGORY_LABEL": "inactive"
  },
  {
    "COMPOUND": "C[C@@H]1C(=O)O[C@H]2[C@H]1CC[C@@]1(C)C=CC(=O)[C@@]3(C)O[C@@]213",
    "CATEGORY_LABEL": "inactive"
  },
  {
    "COMPOUND": "O=c1oc2cc(O)ccc2s1",
    "CATEGORY_LABEL": "inactive"
  },
  {
    "COMPOUND": "COc1c(CC(=O)c2cc3c(cc2O)OC(C)(C)C(O)C3)ccc2c1C=CC(C)(C)O2 (centres undefined)",
    "CATEGORY_LABEL": "inactive"
  },
  {
    "COMPOUND": "O=C(Nc1ccc(Br)cc1Cl)C(Cl)(Cl)Cl",
    "CATEGORY_LABEL": "inactive"
  },
  {
    "COMPOUND": "Cc1csc2ccc(Cl)cc12",
    "CATEGORY_LABEL": "inactive"
  },
  {
    "COMPOUND": "COC(=O)/C(C)=C\\CC12OC(C)(C)C3CC(C=C4C(=O)c5c(O)c6c(c(CCC(C)(C)Cl)c5OC431)OC1(C)CCC(=C(C)C)C6C1)C2=O (centres undefined)",
    "CATEGORY_LABEL": "inactive"
  },
  {
    "COMPOUND": "CC(C)CC(N(C)C)C1(c2ccc(Cl)cc2)CCC1 (centres undefined)",
    "CATEGORY_LABEL": "inactive"
  },
  {
    "COMPOUND": "Cc1noc(N)c1C(N)=S",
    "CATEGORY_LABEL": "inactive"
  },
  {
    "COMPOUND": "Cc1ccc(S(=O)(=O)NC(=O)NN2CC3CCCC3C2)cc1 (centres undefined)",
    "CATEGORY_LABEL": "inactive"
  },
  {
    "COMPOUND": "C[C@@H]1CC[C@H]2[C@@H](C)C(=O)O[C@@H]3O[C@@]4(C)CC[C@@H]1[C@]32OO4",
    "CATEGORY_LABEL": "inactive"
  },
  {
    "COMPOUND": "CCOP(=S)(OCC)Oc1nc(Cl)c(Cl)cc1Cl",
    "CATEGORY_LABEL": "inactive"
  },
  {
    "COMPOUND": "O=[N+]([O-])c1cc(Cl)ccc1S(=O)(=O)c1ccccc1",
    "CATEGORY_LABEL": "inactive"
  },
  {
    "COMPOUND": "C/C=C1\\[C@H]2C=C(C)C[C@]1(N)c1ccc(=O)[nH]c1C2",
    "CATEGORY_LABEL": "inactive"
  },
  {
    "COMPOUND": "COc1cccc(-c2nc(C#N)c(N)o2)c1",
    "CATEGORY_LABEL": "inactive"
  },
  {
    "COMPOUND": "C/C=C(/C)C(=O)O[C@H]1CC[C@@]2(C)[C@@H]3CC[C@H]4[C@]5(O)C[C@H](O)[C@@]6(O)[C@@H](CN7C[C@@H](C)CC[C@H]7[C@@]6(C)O)[C@]5(O)C[C@@]42O[C@]13O",
    "CATEGORY_LABEL": "inactive"
  },
  {
    "COMPOUND": "Cc1cccc(NC(=S)NC2CC3C=CC2C3)c1 (centres undefined)",
    "CATEGORY_LABEL": "inactive"
  },
  {
    "COMPOUND": "N#CC(C#N)=CNc1cccc(N)n1",
    "CATEGORY_LABEL": "inactive"
  },
  {
    "COMPOUND": "NC(Cc1c[nH]c2ccccc12)C(=O)O (centres undefined)",
    "CATEGORY_LABEL": "inactive"
  },
  {
    "COMPOUND": "Cc1cn([C@H]2C[C@H](N=[N+]=[N-])[C@@H](CO)O2)c(=O)[nH]c1=O",
    "CATEGORY_LABEL": "inactive"
  },
  {
    "COMPOUND": "CC(C)(Oc1ccc(CCNC(=O)c2ccc(Cl)cc2)cc1)C(=O)O",
    "CATEGORY_LABEL": "inactive"
  },
  {
    "COMPOUND": "Cc1cc(C)cc(NC(=S)N2CCN(c3ncc(C(F)(F)F)cc3Cl)CC2)c1",
    "CATEGORY_LABEL": "inactive"
  },
  {
    "COMPOUND": "CC(C)=CCCC1(C)C=Cc2c(O)c3c(c(CC=C(C)C)c2O1)OC12C(=CC4CC1C(C)(C)OC2(C/C=C(\\C)C(N)=O)C4=O)C3=O (centres undefined)",
    "CATEGORY_LABEL": "inactive"
  },
  {
    "COMPOUND": "Nc1ccc(S(=O)(=O)c2ccc(N)cc2)cc1",
    "CATEGORY_LABEL": "inactive"
  }
]
